Taken from ChEMBL document CHEMBL3885861.

Recorded measurements of Ret, one per entry
organism: Rattus norvegicus; assay: Open TG-GATES - Regimen: Daily Repeat; assay type: toxicity, organism-based, Sprague-Dawley; design: regimen Daily Repeat, gender Male, age 6 weeks; conditions: in vivo, po, 10 mg/kg, […], tissue Blood, route gavage, dose level Low, time 7 day
quantity: Ret (%)

| compound | quantity | number |
| --- | --- | --- |
| CN(C)CCCN1c2ccccc2CCc2ccccc21 | Ret | 4.8 |
| CC(C)OC(=O)C(C)(C)Oc1ccc(C(=O)c2ccc(Cl)cc2)cc1 [FENOFIBRATE] | Ret | 6.2 |
| CC1=C(/C=C/C(C)=C/C=C/C(C)=C/CO)C(C)(C)CCC1 | Ret | 5.1 |
| CN(C)CCN(Cc1cccs1)c1ccccn1 | Ret | 4.8 |

* * *

species on record: Rattus norvegicus; experiment: Open TG-GATES - Regimen: Daily Repeat; assay type: toxicity, organism-based, Sprague-Dawley; set-up: regimen Daily Repeat, gender Male, age 6 weeks; settings: in vivo, po, 300 mg/kg, […], tissue Plasma, route gavage, dose level Middle, time 28 day
Recorded measurements of Ca, one per entry
quantity: Ca

| molecule | quantity | result |
| --- | --- | --- |
| NC(N)=Nc1nc(CSCCC(N)=NS(N)(=O)=O)cs1 | Ca | 10.4 mg/dL |
| CCOC(=O)CCC(=O)O[C@H]1[C@H](O[C@@H]2[C@@H](C)[C@H](O[C@H]3C[C@@](C)(OC)[C@@H](O)[C@H](C)O3)[C@@H](C)C(=O)O[C@H](CC)[C@@](C)(O)[C@H](O)[C@@H](C)C(=O)[C@H](C)C[C@@]2(C)O)O[C@H](C)C[C@@H]1N(C)C [ERYTHROMYCIN ETHYLSUCCINATE] | Ca | 10.5 mg/dL |
| COc1ccc2[nH]c([S+]([O-])Cc3ncc(C)c(OC)c3C)nc2c1 (stereo not given) | Ca | 10.3 mg/dL |
| COC1=CC(=O)C[C@@H](C)[C@]12Oc1c(Cl)c(OC)cc(OC)c1C2=O | Ca | 10.6 mg/dL |
| CCOc1ccc(NC(=O)CC(C)O)cc1 (stereo not given) | Ca | 11.2 mg/dL |

* * *

Recorded measurements of ALT, one per entry
species on record: Rattus norvegicus; assay: Open TG-GATES - Regimen: Daily Repeat; assay type: toxicity, organism-based, Sprague-Dawley; set-up: regimen Daily Repeat, gender Male, age 6 weeks; settings: in vivo, po, 100 mg/kg, […], tissue Plasma, route gavage, dose level Low, time 28 day
quantity: ALT (IU/L)

| molecule | quantity | unit.text | number |
| --- | --- | --- | --- |
| COC1=CC(=O)C[C@@H](C)[C@]12Oc1c(Cl)c(OC)cc(OC)c1C2=O | ALT | IU/L | 31 |
| CCOC(=O)CCC(=O)O[C@H]1[C@H](O[C@@H]2[C@@H](C)[C@H](O[C@H]3C[C@@](C)(OC)[C@@H](O)[C@H](C)O3)[C@@H](C)C(=O)O[C@H](CC)[C@@](C)(O)[C@H](O)[C@@H](C)C(=O)[C@H](C)C[C@@]2(C)O)O[C@H](C)C[C@@H]1N(C)C [ERYTHROMYCIN ETHYLSUCCINATE] | ALT | IU/L | 37.8 |
| CCOc1ccc(NC(=O)CC(C)O)cc1 (centres undefined) | ALT | IU/L | 32.6 |
| NC(N)=Nc1nc(CSCCC(N)=NS(N)(=O)=O)cs1 | ALT | IU/L | 31.8 |

* * *

species on record: Rattus norvegicus; assay: Open TG-GATES - Regimen: Daily Repeat; type: toxicity, organism-based, Sprague-Dawley; parameters: regimen Daily Repeat, gender Male, age 6 weeks; settings: in vivo, po, 300 mg/kg, […], tissue Plasma, route gavage, dose level Middle, time 7 day
Recorded measurements of A/G, one per entry
quantity: A/G

| molecule | quantity | number |
| --- | --- | --- |
| COC1=CC(=O)C[C@@H](C)[C@]12Oc1c(Cl)c(OC)cc(OC)c1C2=O [GRISEOFULVIN] | A/G | 1.4 |
| NC(N)=Nc1nc(CSCCC(N)=NS(N)(=O)=O)cs1 [FAMOTIDINE] | A/G | 1.5 |
| CCOc1ccc(NC(=O)CC(C)O)cc1 (centres undefined) [BUCETIN] | A/G | 0.8 |
| CCOC(=O)CCC(=O)O[C@H]1[C@H](O[C@@H]2[C@@H](C)[C@H](O[C@H]3C[C@@](C)(OC)[C@@H](O)[C@H](C)O3)[C@@H](C)C(=O)O[C@H](CC)[C@@](C)(O)[C@H](O)[C@@H](C)C(=O)[C@H](C)C[C@@]2(C)O)O[C@H](C)C[C@@H]1N(C)C [ERYTHROMYCIN ETHYLSUCCINATE] | A/G | 1.2 |

* * *

organism: Rattus norvegicus; assay: Open TG-GATES - Regimen: Single; format: toxicity, organism-based, Sprague-Dawley; parameters: regimen Single, gender Male, age 6 weeks; conditions: in vivo, po, 10 mg/kg, 9 h, tissue Kidney, route gavage, dose level Low
Recorded measurements of KIDNEY_R, one per entry
quantity: KIDNEY_R

| compound | result |
| --- | --- |
| CN(C)CCCN1c2ccccc2CCc2ccc(Cl)cc21 [CLOMIPRAMINE] | 0.9 g |
| CN(C)CCCN1c2ccccc2CCc2ccccc21 [IMIPRAMINE] | 0.9 g |
| CC(C)OC(=O)C(C)(C)Oc1ccc(C(=O)c2ccc(Cl)cc2)cc1 [FENOFIBRATE] | 0.8 g |
| CN(C)CCN(Cc1cccs1)c1ccccn1 | 0.9 g |
| CC1=C(/C=C/C(C)=C/C=C/C(C)=C/CO)C(C)(C)CCC1 [RETINOL] | 0.9 g |

* * *

species: Rattus norvegicus; experiment: Open TG-GATES - Regimen: Daily Repeat; assay type: toxicity, organism-based, Sprague-Dawley; design: regimen Daily Repeat, gender Male, age 6 weeks; settings: in vivo, po, 1000 mg/kg, […], tissue Blood, route gavage, dose level High, time 14 day
# binarize MCH: threshold 20 pg inclusive, high side 1, low side -1

| compound | class.label |
| --- | --- |
| COC1=CC(=O)C[C@@H](C)[C@]12Oc1c(Cl)c(OC)cc(OC)c1C2=O | 1 |
| CCOc1ccc(NC(=O)CC(C)O)cc1 (stereo not given) | 1 |
| COc1ccc2[nH]c([S+]([O-])Cc3ncc(C)c(OC)c3C)nc2c1 (stereo not given) | -1 |
| NC(N)=Nc1nc(CSCCC(N)=NS(N)(=O)=O)cs1 | 1 |

* * *

species on record: Rattus norvegicus; test: Open TG-GATES - Regimen: Single; assay type: toxicity, organism-based, Sprague-Dawley; design: regimen Single, gender Male, age 6 weeks; conditions: in vivo, po, 0 mg/kg, 3 h, tissue Blood, route gavage, dose level Control
Recorded measurements of MCH, one per entry
quantity: MCH (pg)

| compound | quantity | unit.text | number |
| --- | --- | --- | --- |
| COC1=CC(=O)C[C@@H](C)[C@]12Oc1c(Cl)c(OC)cc(OC)c1C2=O [GRISEOFULVIN] | MCH | pg | 21.7 |
| CCOc1ccc(NC(=O)CC(C)O)cc1 (stereo not given) [BUCETIN] | MCH | pg | 21.4 |
| CN(C)CCCN1c2ccccc2CCc2ccc(Cl)cc21 [CLOMIPRAMINE] | MCH | pg | 21.4 |
| CN(C)CCN(Cc1cccs1)c1ccccn1 | MCH | pg | 20.9 |
| Cc1ccc(C)c(OCCCC(C)(C)C(=O)O)c1 [GEMFIBROZIL] | MCH | pg | 22.6 |
| CCCNC(=O)NS(=O)(=O)c1ccc(Cl)cc1 [CHLORPROPAMIDE] | MCH | pg | 21.1 |
| NNC(=O)c1ccncc1 [ISONIAZID] | MCH | pg | 21.5 |
| CC/C(=C(\c1ccccc1)c1ccc(OCCN(C)C)cc1)c1ccccc1 [TAMOXIFEN] | MCH | pg | 21.6 |
| O=C(CCCN1CCC(O)(c2ccc(Cl)cc2)CC1)c1ccc(F)cc1 [HALOPERIDOL] | MCH | pg | 21.8 |
| COc1ccc2[nH]c([S+]([O-])Cc3ncc(C)c(OC)c3C)nc2c1 (stereo not given) [OMEPRAZOLE] | MCH | pg | 21.4 |

* * *

species: Rattus norvegicus; assay: Open TG-GATES - Regimen: Daily Repeat; format: toxicity, organism-based, Sprague-Dawley; set-up: regimen Daily Repeat, gender Male, age 6 weeks; conditions: in vivo, po, 300 mg/kg, […], tissue Blood, route gavage, dose level Middle, time 7 day

| compound | PT (s) |
| --- | --- |
| CCOC(=O)CCC(=O)O[C@H]1[C@H](O[C@@H]2[C@@H](C)[C@H](O[C@H]3C[C@@](C)(OC)[C@@H](O)[C@H](C)O3)[C@@H](C)C(=O)O[C@H](CC)[C@@](C)(O)[C@H](O)[C@@H](C)C(=O)[C@H](C)C[C@@]2(C)O)O[C@H](C)C[C@@H]1N(C)C [ERYTHROMYCIN ETHYLSUCCINATE] | 16.3 |
| COC1=CC(=O)C[C@@H](C)[C@]12Oc1c(Cl)c(OC)cc(OC)c1C2=O | 12.3 |
| COc1ccc2[nH]c([S+]([O-])Cc3ncc(C)c(OC)c3C)nc2c1 (stereo not given) | 12 |
| CCOc1ccc(NC(=O)CC(C)O)cc1 (stereo not given) | 14 |
| NC(N)=Nc1nc(CSCCC(N)=NS(N)(=O)=O)cs1 | 12 |
